molecular target: recombinant human PAI-1 (Homo sapiens, UniProt P05121); construct: purchased Molecular Innovations, Inc; experiment: Test Example 2: human PAI-1 inhibitory activity (tPA fluorogenic substrate, pH 7.4 HEPES buffer); assay type: biochemical; conditions: human PAI-1; compound concentration 0.3 μM
Sequence (P05121 24-402): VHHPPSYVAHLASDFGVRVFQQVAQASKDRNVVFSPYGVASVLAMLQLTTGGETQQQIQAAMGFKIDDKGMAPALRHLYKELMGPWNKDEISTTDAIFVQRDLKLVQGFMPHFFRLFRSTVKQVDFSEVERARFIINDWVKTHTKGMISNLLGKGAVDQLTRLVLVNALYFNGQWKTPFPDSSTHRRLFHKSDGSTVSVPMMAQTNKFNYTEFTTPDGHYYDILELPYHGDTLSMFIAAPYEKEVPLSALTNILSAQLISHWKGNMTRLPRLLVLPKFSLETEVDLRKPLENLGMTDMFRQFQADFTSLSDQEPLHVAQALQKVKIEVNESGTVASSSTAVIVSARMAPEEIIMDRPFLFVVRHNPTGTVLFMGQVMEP
measurementType: Inhibition Rate of PAI-1 Activity (%)

[[record]]
molecule = "CC(C)(C)Oc1ccc(Oc2cc(-c3ccc(OC(F)(F)F)cc3)ccc2CCC(=O)O)cc1 [Compound 473]"
observedresult = 9

[[record]]
molecule = "CC(C)(C)c1ccc(Oc2cc(-c3ccc4ccccc4c3)ccc2CCC(=O)O)cc1 [Compound 470]"
observedresult = 16

[[record]]
molecule = "CC(C)(C)c1ccc(Oc2ccc(Oc3ccc(OC(F)(F)F)cc3)cc2OCC(=O)O)cc1 [Compound 537]"
observedresult = 26

[[record]]
molecule = "CCCCCCCOc1ccc(-c2ccc(OC(F)(F)F)cc2)cc1N(CCCCc1ccccc1)C(=O)C(=O)O [Compound 371]"
observedresult = 17

[[record]]
molecule = "CC(C)(C)c1cccc(Oc2ccc(-c3ccc(OC(F)(F)F)cc3)cc2OCC(=O)O)c1 [Compound 439]"
observedresult = 9

[[record]]
molecule = "CC(C)c1ccccc1Oc1cc(-c2ccc(OC(F)(F)F)cc2)ccc1/C=C/C(=O)O [Compound 490]"
observedresult = 13

[[record]]
molecule = "CC(C)(C)c1ccc(Sc2cc(-c3ccc(OC(F)(F)F)cc3)ccc2C(=O)C(=O)O)cc1 [Compound 548]"
observedresult = 16

[[record]]
molecule = "CCCCCOc1ccc(-c2ccc(Oc3ccc(C(C)(C)C)cc3)c(OCC(=O)O)c2)cc1 [Compound 454]"
observedresult = 17


###

target: recombinant human PAI-1 (Homo sapiens, UniProt P05121); construct: purchased Molecular Innovations, Inc; assay: Test Example 1: human PAI-1 inhibitory activity (tPA fluorogenic substrate, pH 7.5 Tris buffer); format: biochemical; conditions: Compound Concentration 25 μM; Tris buffer
measurementType: Inhibition Rate of PAI-1 Activity (%)

[[record]]
compound = "CC(C)(C)c1ccc(-c2ccc(OCc3ccc(OC(F)(F)F)cc3)c(CCC(=O)O)c2)cc1 [Compound 52]"
endpointunit = "%"
valuecomparator = "="
observedresult = 94

[[record]]
compound = "CC(C)(C)c1ccc(CN(C(=O)CCC(=O)O)c2ccc(-c3ccc(OC(F)(F)F)cc3)cc2)cc1 [Compound 609]"
endpointunit = "%"
valuecomparator = ">"
observedresult = 99

[[record]]
compound = "COc1ccc(-c2ccc(OCc3ccc(C(C)(C)C)cc3)c(/C=C/C(=O)O)c2)cc1 [Compound 37]"
endpointunit = "%"
valuecomparator = "="
observedresult = 84

[[record]]
compound = "O=C(O)CCc1cc(-c2ccc(OC(F)(F)F)cc2)ccc1OCc1ccc(-c2ccccc2)cc1 [Compound 29]"
endpointunit = "%"
valuecomparator = "="
observedresult = 88

[[record]]
compound = "CC(C)(C)c1ccc(-c2ccc(OCc3ccc(C(F)(F)F)cc3)c(CCC(=O)O)c2)cc1 [Compound 70]"
endpointunit = "%"
valuecomparator = "="
observedresult = 95

[[record]]
compound = "CC(C)(C)c1ccc(COc2cccc(Oc3ccc(OC(F)(F)F)cc3)c2/C=C/C(=O)O)cc1 [Compound 85]"
endpointunit = "%"
valuecomparator = "="
observedresult = 85

[[record]]
compound = "CC(C)(C)c1ccc(COc2ccc(-c3ccc(OC(F)(F)F)cc3)cc2/C=C/C(=O)O)cc1 [Compound 25]"
endpointunit = "%"
valuecomparator = "="
observedresult = 93

[[record]]
compound = "O=C(O)CCc1cc(-c2ccc(OC(F)(F)F)cc2)ccc1Oc1ccc(OC(F)(F)F)cc1 [Compound 16]"
endpointunit = "%"
valuecomparator = "="
observedresult = 96


###

Reported Inhibition Rate of PAI-1 Activity (%) values for the following compounds.
molecular target: recombinant human PAI-1 (Homo sapiens); construct: purchased Molecular Innovations, Inc; assay: Test Example 1: human PAI-1 inhibitory activity (tPA fluorogenic substrate, pH 7.5 Tris buffer); type: biochemical; settings: Compound Concentration 10 μM; Tris buffer
measurementType: Inhibition Rate of PAI-1 Activity (%)

[[record]]
smi = "CSc1ccc(CN(C(=O)C(=O)O)c2ccc(-c3ccc(OC(F)(F)F)cc3)cc2)cc1"
measurementtype = "Inhibition Rate of PAI-1 Activity (%)"
endpointunit = "%"
observedresult = 26

[[record]]
smi = "CCCOc1ccc(N(CCCCc2ccccc2)C(=O)C(=O)O)cc1-c1ccc(OC(F)(F)F)cc1"
measurementtype = "Inhibition Rate of PAI-1 Activity (%)"
endpointunit = "%"
observedresult = 91

[[record]]
smi = "O=C(O)CCc1cc(-c2ccccc2)ccc1OCc1ccc(OC(F)(F)F)cc1"
measurementtype = "Inhibition Rate of PAI-1 Activity (%)"
endpointunit = "%"
observedresult = 32

[[record]]
smi = "CC(C)(C)c1ccc(CN(C(=O)C(=O)O)c2ccc(-c3ccc(OC(F)(F)F)cc3)c(C(F)(F)F)c2)cc1"
measurementtype = "Inhibition Rate of PAI-1 Activity (%)"
endpointunit = "%"
observedresult = 79

[[record]]
smi = "CC(C)Oc1ccc(N(Cc2ccc(C(C)(C)C)cc2)C(=O)C(=O)O)cc1-c1ccc(OC(F)(F)F)cc1"
measurementtype = "Inhibition Rate of PAI-1 Activity (%)"
endpointunit = "%"
observedresult = 96

[[record]]
smi = "CC(C)(C)c1ccc(COc2ccc(-c3ccccc3)cc2CCC(=O)O)cc1"
measurementtype = "Inhibition Rate of PAI-1 Activity (%)"
endpointunit = "%"
observedresult = 47

[[record]]
smi = "CN(c1ccc(OC(F)(F)F)cc1)c1ccc(OCc2ccc(C(C)(C)C)cc2)c(CCC(=O)O)c1"
measurementtype = "Inhibition Rate of PAI-1 Activity (%)"
endpointunit = "%"
observedresult = 79

[[record]]
smi = "O=C(O)C=Cc1c(Oc2ccc(OC(F)(F)F)cc2)cccc1Oc1ccc(OC(F)(F)F)cc1"
measurementtype = "Inhibition Rate of PAI-1 Activity (%)"
endpointunit = "%"
observedresult = 40


###

Target: recombinant human PAI-1 (Homo sapiens, UniProt P05121)
Construct: purchased Molecular Innovations, Inc
Assay: Test Example 1: human PAI-1 inhibitory activity (tPA fluorogenic substrate, pH 7.5 Tris buffer)
Format: biochemical
Conditions: Compound Concentration 10 μM; Tris buffer
Procedure: 50 mM Tris, 150 mM NaCl, 10 μg/ml BSA, 0.01% Tween80 (SIGMA-ALDRICH Corporation)
Response field class: string, computed from recorded Inhibition Rate of PAI-1 Activity (%) by ranges one: < 60%; two: ≥ 60% and < 80%; three: ≥ 80%

[[record]]
compound = "CC(c1ccc(C(C)(C)C)cc1)N(C(=O)C(=O)O)c1ccc(-c2ccc(OC(F)(F)F)cc2)cc1 (stereo not shown) [Compound 220]"
discretelabel = "three"

[[record]]
compound = "CC(C)(C)c1ccc(CN(C(=O)C(=O)O)c2ccccc2-c2ccc(OC(F)(F)F)cc2)cc1 [Compound 148]"
discretelabel = "one"

[[record]]
compound = "CC(C)(C)c1ccc(COc2ccc(-c3ccc4c(c3)OCO4)cc2CC(=O)O)cc1 [Compound 10]"
discretelabel = "two"

[[record]]
compound = "O=C(O)CCc1cc(-c2ccc(OC(F)(F)F)cc2)ccc1OCCCOc1ccccc1 [Compound 103]"
discretelabel = "one"

[[record]]
compound = "Cc1ccc(N(Cc2ccc(C(C)(C)C)cc2)C(=O)C(=O)O)cc1Oc1ccc(OC(F)(F)F)cc1 [Compound 187]"
discretelabel = "three"

[[record]]
compound = "CC(C)(C)c1ccc(-c2ccc(Oc3ccc(-c4ccc(OC(F)(F)F)cc4)cc3CCC(=O)O)c(CCC(=O)O)c2)cc1 [Compound 541]"
discretelabel = "three"

[[record]]
compound = "CC(C)(C)c1ccc(Oc2cc(Oc3ccc(OC(F)(F)F)cc3)ccc2/C=C/C(=O)O)cc1 [Compound 89]"
discretelabel = "three"

[[record]]
compound = "O=C(O)CCc1cc(-c2ccc(OC(F)(F)F)cc2)ccc1OCc1ccc(OC(F)(F)F)cc1 [Compound 62]"
discretelabel = "two"

[[record]]
compound = "CC(C)(Oc1ccc(-c2ccc(OC(F)(F)F)cc2)cc1Oc1ccc(C(C)(C)C)cc1)C(=O)O [Compound 110]"
discretelabel = "one"

[[record]]
compound = "CC(C)(C)c1ccc(-c2ccc(N(Cc3ccc(Cl)cc3)C(=O)C(=O)O)cc2)cc1 [Compound 204]"
discretelabel = "three"

[[record]]
compound = "CC(C)(C)c1ccc(-c2ccc(N(Cc3ccccc3)C(=O)C(=O)O)cc2)cc1 [Compound 156]"
discretelabel = "one"

[[record]]
compound = "COc1ccc(-c2ccc(OC(F)(F)F)cc2)cc1N(Cc1ccc(C(C)(C)C)cc1)C(=O)C(=O)O [Compound 182]"
discretelabel = "three"

[[record]]
compound = "Cc1ccc(-c2ccc(N(Cc3ccc(C(C)(C)C)cc3)C(=O)C(=O)O)cc2)cc1 [Compound 141]"
discretelabel = "one"

[[record]]
compound = "O=C(O)C(=O)N(c1ccc(-c2ccc(OC(F)(F)F)cc2)cc1)C1CCCCC1 [Compound 253]"
discretelabel = "one"

[[record]]
compound = "CC(C)(C)c1ccc(COc2ccc(OCc3ccc(OC(F)(F)F)cc3)cc2CCC(=O)O)cc1 [Compound 414]"
discretelabel = "two"

